Tested on: Danio rerio embryo
protocolDescription: EC20 Eye-jaw distance_Decrease; higher = less potent
particulars: exposure time: 4 dpf
assayMetric: EC20 Eye-jaw distance Decrease (µM)
Give the value in µM but do not write µM after it.

Sample answers from the record:
compound: CC1(C)OC(=O)C(OCC2CC2)=C1c1ccc(S(C)(=O)=O)cc1 [Firocoxib]
system: Danio rerio embryo
readoutUnits: µM
EC20 Eye-jaw distance Decrease: 93.2
//
compound: O=C(O)CCc1nc(-c2ccccc2)c(-c2ccccc2)o1 [Oxaprozin]
system: Danio rerio embryo
readoutUnits: µM
EC20 Eye-jaw distance Decrease: 15.4

Log: Danio rerio embryo, compound CCC(=O)OCC(=O)[C@@]1(OC(=O)CC)[C@@H](C)C[C@H]2[C@@H]3CCC4=CC(=O)C=C[C@]4(C)[C@@]3(F)[C@@H](O)C[C@@]21C [betamethasone dipropionate] , EC20 Eye-jaw distance Decrease = 0.064

Note to self: EC20 Eye-jaw distance Decrease of O=C(O)Cc1ccccc1Nc1c(Cl)cccc1Cl [Diclofenac] with Danio rerio embryo was 6.88
